The reported numbers originate from ChEMBL document CHEMBL1201861.

System: ONS-76;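 also: growth inhibition of human ONS-76 cells, read out with a cell viability assay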
Experimental Details: cells
Type: functional, cell-based, Homo sapiens
Condition Set: Homo sapiens, ONS-76
Description: SANGER: Inhibition of human ONS-76 cell growth in a cell viability assay.
pIC50: −log10 of the molar value.
Parameter: pIC50

Exam item: // query pIC50 value for entry Cc1cn(-c2cc(NC(=O)c3ccc(C)c(Nc4nccc(-c5cccnc5)n4)c3)cc(C(F)(F)F)c2)cn1
Marked response: < 5.70

Exam item: Quick one: pIC50 of CCC/C=C/C=C/C(=O)O[C@H]1/C(=C/C(=O)OC)C[C@H]2C[C@H]([C@@H](C)O)OC(=O)C[C@H](O)C[C@@H]3C[C@H](OC(C)=O)C(C)(C)[C@](O)(C[C@@H]4C/C(=C/C(=O)OC)C[C@H](/C=C/C(C)(C)[C@]1(O)O2)O4)O3 ?
Marked response: < 8.10

Exam item: Form field: reported pIC50 of COc1cc(N2CCN(C)CC2)ccc1Nc1ncc2c(n1)N(C)c1ccccc1C(=O)N2C
Marked response: < 5.10

Exam item: # lookup: pIC50 of N[C@@H](CSC(c1ccccc1)(c1ccccc1)c1ccccc1)C(=O)O
Marked response: < 5.29

Exam item: Form field: reported pIC50 of COc1cc2ncn(-c3cc(OCc4ccccc4C(F)(F)F)c(C(N)=O)s3)c2cc1OC [GW843682X]
Marked response: 7.11

----------
Tested on: U-118-MG
Experimental Details: cells
Type: functional, cell-based, Homo sapiens
Condition Set: u-118-mg
Description: SANGER: Inhibition of human U-118-MG cell growth in a cell viability assay.
Parameter: pIC50
// pIC50 is dimensionless: -log10 of concentration (M)

Exam item: Identify the measured pIC50 of CISPLATIN for U-118-MG.
Marked response: 4.77

Exam item: Test system U-118-MG; read-out pIC50; what value for BLEOMYCIN ?
Marked response: 4.18

----------
Tested on: GI-ME-N
Experimental Details: cells
Assay type: functional, cell-based, Homo sapiens
Condition Set: gi-me-n
Description: SANGER: Inhibition of human GI-ME-N cell growth in a cell viability assay.
Parameter: pIC50
The scale used: pIC50 is minus the common logarithm of the concentration in molar units.

Exam item: Requested read-out: pIC50. Entry: BLEOMYCIN
Marked response: 6.36

----------
Please respond with reported pIC50 for every item in the list.
System: MFH-ino;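 also: growth inhibition of human MFH-ino cells, read out by a cell viability assay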
Experimental Details: cells
Assay type: functional, cell-based, Homo sapiens
Condition Set: Homo sapiens, MFH-ino
Description: SANGER: Inhibition of human MFH-ino cell growth in a cell viability assay.
Keep it numeric: pIC50 is minus log10 of the concentration in mol/L.

Exam item: I am curious: what pIC50 value has been reported for Cc1cc([N+](=O)[O-])ccc1NS(=O)(=O)c1cc(Cl)ccc1Cl ?
Marked response: 6.30

Exam item: Any idea what its pIC50 is? The compound is Nc1ccn([C@@H]2O[C@H](CO)[C@@H](O)C2(F)F)c(=O)n1 [GEMCITABINE]
Marked response: 8.78

Exam item: Quick one: pIC50 for COc1cc(-c2nn([C@H]3CC[C@H](N4CCN(C(C)=O)CC4)CC3)c3ncnc(N)c23)ccc1NC(=O)c1cc2ccccc2n1C ?
Marked response: 5.94

----------
Task for the reader: assign each of the following molecules its reported IC50.
Tested on: DOHH-2
Experimental Details: cells
Format: functional, cell-based, Homo sapiens
Condition Set: Homo sapiens, DOHH-2
Description: SANGER: Inhibition of human DOHH-2 cell growth in a cell viability assay.
Quick reminder: number only, in µM, skip the unit.

Exam item: What does the record list as IC50 for CC(=O)O[C@H]1C(=O)[C@@]2(C)[C@H]([C@H](OC(=O)c3ccccc3)[C@]3(O)C[C@H](OC(=O)[C@H](O)[C@@H](NC(=O)c4ccccc4)c4ccccc4)C(C)=C1C3(C)C)[C@]1(OC(C)=O)CO[C@@H]1C[C@@H]2O ?
Marked response: 0.012

Exam item: Requested read-out: IC50. Entry: CCN(CC)CCNC(=O)c1c(C)[nH]c(/C=C2\C(=O)Nc3ccc(F)cc32)c1C
Marked response: 2.33
